Attribution: ChEMBL document CHEMBL1135980

assay method text: pharmacokinetics in female BALB/c mice measured as Kel after 50 mg/kg Preoral administration
Assay type: ADME, organism-based
Set-up: dose 50 mg/kg
run parameters: mouse, in vivo, po
measurement kind: k el

Lookup: Assign k el to the following record: COc1cccc2c1ccc1nc3cccc(C(=O)N[C@H](C)CN(C)C)c3nc12
Found: 3.33e-05 s⁻¹

* * *

Tested on: NCI-H69
assay method text: Rf is the resistance factor and is the ratio of the IC50 on the resistant cell line over the IC50 on the parental H69/P cell line
Assay type: functional, Homo sapiens
Binned Rf; ranges: low end (below 1), middle (1 to below 2), high end (2 or more)

Check out these entries, answers already filled in.
CN(C)CCNC(=O)c1cccc2nc3ccc4c(NS(C)(=O)=O)cccc4c3nc12 :: high end
CNCCNC(=O)c1cccc2nc3ccc4c(OC)cccc4c3nc12 :: high end
COc1cccc2c1ccc1nc3cccc(C(=O)NCCN(C)C)c3nc12 :: middle
CN(C)CCNC(=O)c1cccc2nc3ccc4c(OCCN5CCOCC5)cccc4c3nc12 :: high end
COc1cccc2c1ccc1nc3cc(Br)cc(C(=O)NCCN(C)C)c3nc12 :: low end
COc1cccc2c1ccc1nc3ccc(N)c(C(=O)NCCN(C)C)c3nc12 :: low end
COc1cccc2c1ccc1nc3cccc(C(=O)NC(CN(C)C)C(=O)O)c3nc12 (stereo unspecified) :: high end
COc1cccc2c1ccc1nc3cccc(C(=O)N[C@@H]4CCN(C)C4)c3nc12 :: middle

Lookup: Class label required: COc1cccc2c1ccc1nc3cccc(C(=O)N[C@H](C)CN(C)C)c3nc12
Found: middle

Lookup: Class label required: CC[C@@]1(O)C(=O)OCc2c1cc1n(c2=O)Cc2cc3c(CN(C)C)c(O)ccc3nc2-1 [TOPOTECAN]
Found: high end

* * *

Reported values of Rf for individual entries
Test system: NCI-H69
assay method text: Rf is the resistance factor and is the ratio of the IC50 on the resistant cell line over the IC50 on the parental H69/P cell line
Type: functional, Homo sapiens

CCOc1cccc2c1ccc1nc3cccc(C(=O)NCCN(C)C)c3nc12 :: 3.7
CN(C)CCCOc1cccc2c1ccc1nc3cccc(C(=O)NCCN(C)C)c3nc12 :: 0.8
CC(=O)COc1cccc2c1ccc1nc3cccc(C(=O)NCCN(C)C)c3nc12 :: 3.1
COc1cccc2c1ccc1nc3cccc(C(=O)NCCCN(C)C)c3nc12 :: 1.3

Moving on to the next molecule.
Lookup: Assign Rf to the following record: COc1cccc2c1ccc1nc3cccc(C(=O)NCCN4CCCCC4)c3nc12
Found: 2.1

* * *

System: NCI-H69
assay method text: Rf is the resistance factor and is the ratio of the IC50 on the resistant cell line over the IC50 on the parental H69/P cell line
Assay type: functional, Homo sapiens
measurement kind: Rf
Just the number, please.

Reference set, count: 2
COc1cccc2c1C(=O)c1c(O)c3c(c(O)c1C2=O)C[C@@](O)(C(=O)CO)C[C@@H]3O[C@H]1C[C@H](N)[C@H](O)[C@H](C)O1 :: 142
COc1cccc2c1ccc1nc3cccc(C(=O)NCCN(CCO)CCO)c3nc12 :: 5.5

Moving on to the next compound.
Lookup: Assign Rf to the following record: COCCOc1cccc2c1ccc1nc3cccc(C(=O)NCCN(C)C)c3nc12
Found: 1.4

* * *

assay method text: Rf is the resistance factor and is the ratio of the IC50 on the resistant cell line over the IC50 on the parental COR-L23/P cell line
run parameters: human
measurement kind: Rf
Just the number, please.

COc1cccc2c1ccc1nc3cccc(C(=O)NCCN(C)C)c3nc12 :: 1.4

Moving on to the next compound.
Lookup: Assign Rf to the following record: CN(C)CCNC(=O)c1cccc2nc3ccc4cc(O)ccc4c3nc12
Found: 1.4

* * *

assay method text: pharmacokinetics in female BALB/c mice measured as Cl after 20 mg/kg iv administration
Format: ADME, organism-based
Design: dose 20 mg/kg, route intravenous
run parameters: mouse, in vivo
measurement kind: clearance (mL/min)
Write it as a number; the unit mL/min goes unstated.

Lookup: Assign clearance to the following record: COc1cccc2c1ccc1nc3cccc(C(=O)N[C@H](C)CN(C)C)c3nc12
Found: 6.3

* * *

assay method text: pharmacokinetics in female BALB/c mice measured as Kel after 20 mg/kg iv administration
Assay type: ADME, organism-based
Parameters: dose 20 mg/kg, route intravenous
run parameters: mouse, in vivo
measurement kind: k el (s⁻¹)
Write it as a number; the unit s⁻¹ goes unstated.

Lookup: Assign k el to the following record: COc1cccc2c1ccc1nc3cccc(C(=O)N[C@H](C)CN(C)C)c3nc12
Found: 7.33e-05

* * *

assay method text: pharmacokinetics in female BALB/c mice measured as Cl after 50 mg/kg iv administration
Assay type: ADME, organism-based
Design: dose 50 mg/kg, route intravenous
run parameters: mouse, in vivo
measurement kind: clearance (mL/min)
Write it as a number; the unit mL/min goes unstated.

Lookup: Assign clearance to the following record: COc1cccc2c1ccc1nc3cccc(C(=O)N[C@H](C)CN(C)C)c3nc12
Found: 6.4

* * *

Reported values of Rf for individual entries
Tested on: NCI-H69
assay method text: Rf is the resistance factor and is the ratio of the IC50 on the resistant cell line over the IC50 on the parental H69/P cell line
Assay type: functional, Homo sapiens
Just the number, please.

CC(C)Oc1cccc2c1ccc1nc3cccc(C(=O)NCCN(C)C)c3nc12 :: 2.1
COc1cccc2c1ccc1nc3cccc(C(=O)NCC(C)N(C)C)c3nc12 (stereo not given) :: 1.2
CN(C)CCNC(=O)c1cccc2nc3ccc4c(OCc5ccccc5)cccc4c3nc12 :: 1.6

Moving on to the next compound.
Lookup: Assign Rf to the following record: COc1cccc2c1ccc1nc3cccc(C(=O)N[C@@H](C)CN(C)C)c3nc12
Found: 1.3

* * *

Reported values of Rf for individual entries
Tested on: NCI-H69
assay method text: Rf is the resistance factor and is the ratio of the IC50 on the resistant cell line over the IC50 on the parental H69/P cell line
Assay type: functional, Homo sapiens

COc1cccc2c1ccc1nc3cccc(C(=O)NC(C)CN(C)C)c3nc12 (centres undefined) :: 1.4
CN(C)CCNC(=O)c1cccc2nc3ccc4c(S(C)(=O)=O)cccc4c3nc12 :: 2.8
COc1ccc2c(ccc3nc4cccc(C(=O)NCCN(C)C)c4nc32)c1 :: 1.3
COc1cccc2c1ccc1nc3cccc(C(=O)NC(CN(C)C)C(C)C)c3nc12 (centres undefined) :: 0.7
COc1cccc2c1ccc1nc3cccc(C(=O)NC(CCO)CN(C)C)c3nc12 (centres undefined) :: 1.1
COc1cccc2c1ccc1nc3cccc(C(=O)NC(C)(C)CN(C)C)c3nc12 :: 1.5

Lookup: Assign Rf to the following record: COC(=O)c1cccc2c1ccc1nc3cccc(C(=O)NCCN(C)C)c3nc12
Found: 0.9

Lookup: Assign Rf to the following record: COc1ccc2c(ccc3nc4cccc(C(=O)NCCN(C)C)c4nc32)c1OC
Found: 1.8

Lookup: Assign Rf to the following record: COc1cccc2c1ccc1nc3cccc(C(=O)NCC(CN(C)C)N(C)C)c3nc12 (centres undefined)
Found: 3.8

Lookup: Assign Rf to the following record: COc1cc(C(=O)NCCN(C)C)c2nc3c(ccc4c(OC)cccc43)nc2c1
Found: 1.3

Lookup: Assign Rf to the following record: CN(C)CCNC(=O)c1cccc2nc3ccc4ccc([N+](=O)[O-])cc4c3nc12
Found: 1.1

Lookup: Assign Rf to the following record: CN(C)CCNC(=O)c1cccc2nc3ccc4cc([N+](=O)[O-])ccc4c3nc12
Found: 1.4

Lookup: Assign Rf to the following record: COc1cccc2c1ccc1nc3cc(Cl)cc(C(=O)NCCN(C)C)c3nc12
Found: 1

Lookup: Assign Rf to the following record: COc1cccc2c1ccc1nc3cccc(C(=O)N[C@H](CO)CN(C)C)c3nc12
Found: 1.2

* * *

assay method text: pharmacokinetics in female BALB/c mice measured as Cmax after 50 mg/kg Preoral administration
Assay type: ADME, organism-based
Design: route oral, dose 50 mg/kg
run parameters: mouse, in vivo, po
measurement kind: Cmax
Write your answer as a measured quantity: the number, then the unit.

Lookup: Assign Cmax to the following record: COc1cccc2c1ccc1nc3cccc(C(=O)N[C@H](C)CN(C)C)c3nc12
Found: 350 ng/mL

* * *

assay method text: pharmacokinetics in female BALB/c mice measured as Cmax after 20 mg/kg iv administration
Type: ADME, organism-based
Parameters: dose 20 mg/kg, route intravenous
run parameters: mouse, in vivo
measurement kind: Cmax

Lookup: Assign Cmax to the following record: COc1cccc2c1ccc1nc3cccc(C(=O)N[C@H](C)CN(C)C)c3nc12
Found: 800 ng/mL

* * *

Reported values of Rf for individual entries
Test system: NCI-H69
assay method text: Rf is the resistance factor and is the ratio of the IC50 on the resistant cell line over the IC50 on the parental H69/P cell line
Type: functional, Homo sapiens
Just the number, please.

COc1cccc2c1ccc1nc3cccc(C(=O)NC(CO)CN(C)C)c3nc12 (stereo unspecified) :: 1.2
COc1cccc2c1ccc1nc3cccc(C(=O)N[C@@H](CN(C)C)[C@H](C)O)c3nc12 :: 1
CN(C)CCNC(=O)c1cccc2nc3ccc4c([N+](=O)[O-])cccc4c3nc12 :: 1.3
CN(C)CCNC(=O)c1cccc2nc3ccc4c(C#N)cccc4c3nc12 :: 1.5
COc1cccc2c1ccc1nc3c(C)ccc(C(=O)NCCN(C)C)c3nc12 :: 1.9

Lookup: Assign Rf to the following record: CSc1cccc2c1ccc1nc3cccc(C(=O)NCCN(C)C)c3nc12
Found: 0.8

Lookup: Assign Rf to the following record: COc1cccc2c1ccc1nc3cccc(C(=O)NCCN4CCCC4)c3nc12
Found: 1.9

Lookup: Assign Rf to the following record: CN(C)CCNC(=O)c1cccc2nc3ccc4c(CO)cccc4c3nc12
Found: 3.6

Lookup: Assign Rf to the following record: CCC(CN(C)C)NC(=O)c1cccc2nc3ccc4c(OC)cccc4c3nc12 (stereo unspecified)
Found: 1.1

Lookup: Assign Rf to the following record: CN(C)CCNC(=O)c1cccc2nc3ccc4ccccc4c3nc12
Found: 1.9
